Target: UniProt P14679
Sequence (P14679 whole entry): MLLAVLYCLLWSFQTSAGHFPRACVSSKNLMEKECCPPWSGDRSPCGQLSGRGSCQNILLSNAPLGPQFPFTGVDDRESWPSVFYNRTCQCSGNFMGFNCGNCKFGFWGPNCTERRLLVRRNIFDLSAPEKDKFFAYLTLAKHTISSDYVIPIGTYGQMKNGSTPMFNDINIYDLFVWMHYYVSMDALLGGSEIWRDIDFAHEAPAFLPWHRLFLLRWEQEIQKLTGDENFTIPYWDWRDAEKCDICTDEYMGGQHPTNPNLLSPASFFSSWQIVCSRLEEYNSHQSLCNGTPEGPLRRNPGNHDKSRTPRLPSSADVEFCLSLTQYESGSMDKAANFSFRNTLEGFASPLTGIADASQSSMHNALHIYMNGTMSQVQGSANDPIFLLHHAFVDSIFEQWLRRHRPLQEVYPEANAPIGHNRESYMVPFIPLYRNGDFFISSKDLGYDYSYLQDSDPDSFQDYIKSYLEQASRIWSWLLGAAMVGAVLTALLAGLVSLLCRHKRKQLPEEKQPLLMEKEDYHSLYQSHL
Reported endpoint: IC50 (µM)
Value expressed in µM; do not type the unit.

Query: Report the value of IC50 obtained on UniProt P14679 for `C/C=C/c1ccc(O)c(OC)c1` .
Response: 33.3

###

target: UniProt:O42713; assay: Inhibition of mushroom tyrosinase assessed as reduction in dopachrome formation using L-DOPA as substrate by ELISA
Entries and their measured log10 of IC50 follow.
Parameter value (number): base-10 log of IC50 in nM.

Query: Provide log10 of IC50 value for the following molecule: `O=C(O)c1ccc(OCc2cn(Cc3cc(=O)c(O)co3)nn2)cc1`
Response: 3.50

###

target: Tyrosinase (Agaricus bisporus, UniProt O42713); test: Inhibition of mushroom tyrosinase assessed as reduction in dopachrome formation using L-DOPA as substrate by ELISA
Sequence (O42713 whole entry): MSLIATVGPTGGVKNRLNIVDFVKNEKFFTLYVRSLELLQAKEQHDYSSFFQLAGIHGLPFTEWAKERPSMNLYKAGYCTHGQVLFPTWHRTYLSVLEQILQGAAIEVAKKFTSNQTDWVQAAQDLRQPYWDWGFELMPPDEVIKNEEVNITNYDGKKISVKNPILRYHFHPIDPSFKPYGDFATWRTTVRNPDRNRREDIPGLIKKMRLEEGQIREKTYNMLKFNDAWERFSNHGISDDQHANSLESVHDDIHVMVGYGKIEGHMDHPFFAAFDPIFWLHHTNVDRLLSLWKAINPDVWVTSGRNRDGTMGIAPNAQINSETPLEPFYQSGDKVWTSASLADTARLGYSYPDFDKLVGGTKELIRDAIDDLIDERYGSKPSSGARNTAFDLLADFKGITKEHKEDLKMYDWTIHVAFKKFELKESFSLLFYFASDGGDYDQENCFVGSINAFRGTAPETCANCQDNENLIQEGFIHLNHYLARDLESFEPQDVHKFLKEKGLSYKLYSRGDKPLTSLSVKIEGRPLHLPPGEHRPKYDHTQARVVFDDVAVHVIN
Each record's IC50 is compared with low: < 0.2 µM; mid: ≥ 0.2 µM and < 1 µM; high: ≥ 1 µM to give its class.

Answered cases to consult:
- Molecule smiles: "Cc1ccc(C(C)C)cc1OCc1cn(Cc2cc(=O)c(O)co2)nn1"
  System: "Tyrosinase (Agaricus bisporus, UniProt O42713)"
  Category label: "low"
- Molecule smiles: "O=c1ccc2ccc(OCc3cn(Cc4cc(=O)c(O)co4)nn3)cc2o1"
  System: "Tyrosinase (Agaricus bisporus, UniProt O42713)"
  Category label: "mid"
- Molecule smiles: "COC(=O)c1ccc(OCc2cn(Cc3cc(=O)c(O)co3)nn2)cc1"
  System: "Tyrosinase (Agaricus bisporus, UniProt O42713)"
  Category label: "mid"
- Molecule smiles: "COc1ccc(C=O)cc1OCc1cn(Cc2cc(=O)c(O)co2)nn1"
  System: "Tyrosinase (Agaricus bisporus, UniProt O42713)"
  Category label: "high"
- Molecule smiles: "CC(=O)c1ccc(OCc2cn(Cc3cc(=O)c(O)co3)nn2)cc1"
  System: "Tyrosinase (Agaricus bisporus, UniProt O42713)"
  Category label: "high"

Query: Please let me know in which category the item `C/C=C/c1ccc(OCc2cn(Cc3cc(=O)c(O)co3)nn2)c(OC)c1` belongs.
Response: mid

Query: Please let me know in which category the item `COc1cc(C(C)=O)ccc1OCc1cn(Cc2cc(=O)c(O)co2)nn1` belongs.
Response: low

Query: Please let me know in which category the item `COc1cc(C=O)ccc1OCc1cn(Cc2cc(=O)c(O)co2)nn1` belongs.
Response: high

Query: Please let me know in which category the item `Cc1ccc(C(C)C)c(OCc2cn(Cc3cc(=O)c(O)co3)nn2)c1` belongs.
Response: mid

Query: Please let me know in which category the item `COc1cc(C=O)cc(OC)c1OCc1cn(Cc2cc(=O)c(O)co2)nn1` belongs.
Response: high

Query: Please let me know in which category the item `O=c1cc(Cn2cc(COc3ccc4c(c3)OCO4)nn2)occ1O` belongs.
Response: low
